- Protocol notes: folding stability dG unfold from trypsin proteolysis; higher = more stable
Quick reference: folding stability dG unfold of the listed items.

Previously resolved entries follow.
SAGGHHHHHHHHIDGKFRSEEEAKKLKEEIEKELRAKGYTDIEVEVEVKVEEPPPRRPRPGSPAYTLGSAGG [r13_6_JUSTAS]: 1.45 kcal/mol
SAGDEIEEKVKEILEKLNPDEPVVIKRTKDGRILAENPKTGKFIIFDISPDGTIKIVKVVPAEEAKKLGSAG [r5_852_TrMRF]: 1.47 kcal/mol
SAGGSAGGIKPGETVLIVFKDKPEILVFPPGMSEEERKAFPGAKFILVKVEKPELTEEELKALESAGGSAGG [r6_830_TrROS_Hall]: -0.623 kcal/mol
SAGGSAGGSAGMRIVIEVPEDTTVEELAKKLADLGYEVEIRVERDENGRLLVVIEIRPKDSAGGSAGGSAGG [r11_1050_TrROS_Hall]: 2.66 kcal/mol
SAGPIIIRVKYPDGRQIDINPENPWQIQIWDPGGKKETYPFDSNEDAKDKVVDWLGEEHGWPIKDVEIVSAG [r5_119_TrROS]: 0.373 kcal/mol
SAGGSAGGSAGGSPKVYVELRFKLPNNLYVEIRYEIDPEKPGYVDWEVRLFDENGNPLGSAGGSAGGSAGGS [r4_297_TrMRF]: 3.61 kcal/mol
SAGGSAGGGMSMEELKTVDYPLVVTVPLPDGSTVTVSAKVPAEDLDKAIPEVEERAKALAEEGASAGGSAGG [r6_903_JUSTAS]: -0.194 kcal/mol
SAGGSAGGWREIKIYVPPGMPLEEIKDLIKEFFPGYKVEIDEIEREDNYVKATIRIQPLPPGDFSAGGSAGG [r6_623_TrROS]: 3.08 kcal/mol
SAGDVVEIEITYWVPPDEMTVDEFVDHIMSMLPGVKVKSIEIDEIHPYPDGWYEVTVNYTIEVPPGQEISAG [r5_682_TrROS]: 2.53 kcal/mol
SAGELAEKLAEELRKLFPNAEVEVEVVEVKEDYVVVKIRLRVVDEETGEEKTVEVELTLVLKPGEILPSAGG [r19_8_TrROS_Hall]: 3.79 kcal/mol

Query :: Quick one: folding stability dG unfold of SAGGSAGGSEPVVIKVTVTNENGEKRTITLPEIEVEPGETIEEIAAALAAEPGVKEVKVEVVPSAGGSAGGS [r12_199_TrROS_Hall] ?
Result :: 0.702 kcal/mol

Query :: And MTLLIPLPPAFPDLTPEQVLDLLRELFLSPDEEATAEENPETGSVTVTVRRGDEEYVFTFYPDGYLVLEPGS [r1_131_TrMRF] ?
Result :: 2.85 kcal/mol

Query :: And SAGAKEITAEELAEIVREFAAALPPDVKEPVTVEITVPLEDGRVLVFKVTVERSPDGVKATVEVSPGASAGG [r19_220_TrMRF] ?
Result :: 2.4 kcal/mol

Query :: And SAGGSAGGSAGGYIEIVFAHPDPEPGYKYAMVMEIQMDPPGNMEMNIRVIKDPEDAKEAFSAGGSAGGSAGG [r11_792_TrROS] ?
Result :: 1.35 kcal/mol

* * *

- Protocol notes: folding stability dG unfold from chymotrypsin proteolysis; higher = more stable
Quick reference: folding stability dG unfold of the listed items.
Reply with just the number (in kcal/mol).

Previously resolved entries follow.
SAGGSAGGSAGGNNLYSTSTTVLSTVPVRPDETVTRPGTGAPVSPSETVALSTTSTAPSLSAGGSAGGSAGG [r11_793_JUSTAS]: -0.729
SAGGSAGGSAGGIGDDGKVRVALLDKNGKVLGPVYVTKVEEGKIEVEAEPDYTLVLNLESAGGSAGGSAGGS [r10_1257_TrMRF]: 0.487
SMYDIVITVPSPEDVKALEEAFKELGVEEIEVERLPEERYRIVIKTKGSVEEIVEAIRKIAEENGLEIEPSA [r9_1003_TrMRF]: 3.89
SAGGSAGGSAMVVEVPVEFPDDVKVYSVEEDPELGVLLVKVKFPDREVLAVIPGDKLFIADASAGGSAGGSA [r18_212_TrMRF]: 0.325
SAGGSAGGSMLTIEKPMPGTTEEEALEYAEELKEKNPNYKIEVEIEKTEEGYLTVKIKLTKKESAGGSAGGS [r12_425_JUSTAS]: 0.879
SAGGSAGGSAGKKPIKEVTITLPPGAKIVKIEIEKTEDGKYILKITVEVDGKLYEFTFELSAGGSAGGSAGG [r11_1013_TrROS_Hall]: 4.27
SAGMKPGETRHIPIRPGMPPEEFIEEIEAEGPVKIWFPGRKREIDSPDDIEDNFRNFPEPMPIEVKVPSAGG [r19_95_TrROS]: 0.695
SAGGEVKYEHEGKNPDNGNMYKQEQEVPPVPIPPVIVIPAEDLDEFRELGIPENFKILPGNGWIVITSAGGS [r16_194_TrROS]: 0.154
SAGGSAGGMVERPITLRVRVKTPEEVKKLVEELLKPTDAKADVVEEELEDGTVLVTLTIYVPEESAGGSAGG [r6_719_TrMRF]: 1.58
SAGGSAGGSASTSEKIDYPNPPITVTRLPNGVVLVTYSDSNTTTVIPESVLATLPPTVPLFSAGGSAGGSAG [r3_256_JUSTAS]: 1.12

# ---- query sequence ----
Query :: Quick one: folding stability dG unfold of SAGGSAGGMYVKIKVTMTADELKKLFPNIKKGEKVTVELVIKVEKAPPVKVEKKKEKKVEVKLKSAGGSAGG [r6_211_TrROS_Hall] ?
Result :: 2.21

* * *

- Protocol notes: folding stability dG unfold from chymotrypsin proteolysis; higher = more stable
Measured endpoint: folding stability dG unfold (kcal/mol)
Reply with just the number (in kcal/mol).

Previously resolved entries follow.
SAGGVREIAKRIANFAREHGYEVEVDEIEPPPNGYVVIDAKIQMRDGGKPVHEFPISIRFPPPPGDPSAGGS [r8_102_TrROS]: 3.51
SAGGSAGGSAGGSLETRPVLLILKDEEGKPYAVARLEVRELPNGGVEVTVTEIVPAEELSAGGSAGGSAGGS [r4_117_TrMRF]: 1.5
SAGGSAGGSMLVEVEYEGGERRTFPLENRSVEEAVEALPEGVTRVRVTVYLGEKPVEFEVERPSAGGSAGGS [r12_767_TrMRF]: 1.07
SAGGSAGGSAGGKNKYYVRVKIKNPNGRTRKINFPFDDPDQIKEQAQKEGWKIDEVEPVSAGGSAGGSAGGS [r10_882_TrROS]: -0.064
SAGGSAGGSAMPPDAKPVRTETDPATGTTTEYILYPDSDTTIRKTHLPDGSVQVEEFSVSKTSAGGSAGGSA [r18_521_JUSTAS]: -0.491

Query :: Quick one: folding stability dG unfold of SAGGSAGGSAGPTLTLELLFRNEDGSLYAVRVRYDLDTDKVEIEVRRLPPAEPVTVTVEDSAGGSAGGSAGG [r11_657_TrROS_Hall] ?
Result :: 4.26

* * *

- Protocol notes: folding stability dG unfold from chymotrypsin proteolysis; higher = more stable
Quick reference: folding stability dG unfold of the listed items.

SAGGSSSSALVTVPRTETFPGTTLTTETLITIDPETGTVKVTSTVYSEGEPVEVVPSTVPAAEVTLSAGGSA [r2_188_JUSTAS]: 0.503 kcal/mol
SAGGSAMIITFDKKTGKLTIYNKETGKKIEAEITKIEKIPEDKKYVKIKIKNKKTKKEFEFIFKIKSAGGSA [r15_209_TrROS_Hall]: 4.39 kcal/mol
SAGGKKYKVIKEIEITLENGKKIKIKLIEYNEKTNEYILEITYPDGKKITITVPKGMSIEEALKKLLSSAGG [r13_470_TrROS_Hall]: 2.52 kcal/mol

# ---- query sequence ----
Query :: Quick one: folding stability dG unfold of SAGGSAGGTIPSDYSVKELKVGGKKYVIVRYPDGIVELYSVEGNKKTLLRTVDTDPNASVSISGSAGGSAGG [r6_476_JUSTAS] ?
Result :: 2.67 kcal/mol

* * *

Quick reference: folding stability dG unfold of the listed items.
- Protocol notes: folding stability dG unfold (combined trypsin and chymotrypsin); higher = more stable
Reply with just the number (in kcal/mol).

SAGGSAGGPLPLEELRRLLESRPDYEILSVEDESPDYVVVTVRFPFPLPSDEERTLRLRLRFPLSAGGSAGG [r6_152_TrMRF]: 3.08
MEELEKLPGIKVEPIREEDGRLYLRVTFTDEVAKALGKPPVTVLIEVEPGEELELSPELRELLRKLGIEVVS [r1_256_TrROS_Hall]: 3.86
SAGGPGWVTVEFWIPIEPDPNQTRDDVKEKAEEIVHEMAEYHPQFGITNVKVDVDPEEGWVKVSIVWPSAGG [r13_1011_TrROS]: 1.49
SAGGSPETKTISFKYPGNGMRIMVQVERDPADGKKKITINMENNPYMAERAKKALEELGLPVEIHPSAGGSA [r2_30_TrROS]: 1.32

Query :: Quick one: folding stability dG unfold of SAGGSAGGSAGGTITLPNGAKVTRIEFLPDGTLRVEAVVETDGGPVTVEITLPVYPSLATSAGGSAGGSAGG [r7_37_TrMRF] ?
Result :: 2.17
